B1: Homeobox protein cut-like 2, residues 895 to 963; numbered along this chain, O14529 (parent)
chain: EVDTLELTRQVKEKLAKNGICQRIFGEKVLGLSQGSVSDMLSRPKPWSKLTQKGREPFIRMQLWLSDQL

- Variants of: B1
- assay-method-text: abundance fitness (aPCA) (normalised: wild type 0, dead -1); higher = more abundant; growth selection in yeast, the domain comes from the species named
- setup-conditions: Homo sapiens
# if value of abundance fitness reaches -0.2, tag criterion met; if it stays below, tag criterion not met

Below are worked cases with known answers.
[[record]]
mut = "K12P"
category_label = "criterion not met"

[[record]]
mut = "L63D"
category_label = "criterion met"

[[record]]
mut = "L5E"
category_label = "criterion met"

[[record]]
mut = "S38G"
category_label = "criterion met"

[[record]]
mut = "Q10F"
category_label = "criterion not met"

[[record]]
mut = "S33T"
category_label = "criterion met"


Hi team, for "T8A" , is the recorded abundance fitness at or above -0.2?
criterion met

Hi team, for "T8F" , is the recorded abundance fitness at or above -0.2?
criterion met
